Listed here are substances together with their documented Tm.
Assay: melting temperature; melt of duplexes
Details: sodium 0.0675 M; strand 1 µM
// return numeric value only (unit: °C, not printed)

Supply measured Tm of CGACGTGCCGAATGTGCTG+CAGCACATCAAGCACGTCG ((((((((...((((((((+))))))))...)))))))) in your reply.
49.6

----------
Test: melting temperature; UV melt of duplexes
Settings: sodium 1.02 M; strand 2 µM
Listed here are substances together with their documented Tm.
// return numeric value only (unit: °C, not printed)

Supply measured Tm of CGAGCTTATCCCTATCCCTC+GAGGGATAGGGATAAGCTCG ((((((((((((((((((((+)))))))))))))))))))) in your reply.
70.3

Supply measured Tm of GTTATTCCGCAGTCCGATGGCAGCAGGCTC+GAGCCTGCTGCCATCGGACTGCGGAATAAC ((((((((((((((((((((((((((((((+)))))))))))))))))))))))))))))) in your reply.
84.1

# context switch: different substance, same Tm
Supply measured Tm of TCGGAGAAATCACTGAGCTGCCTGAGAAGA+TCTTCTCAGGCAGCTCAGTGATTTCTCCGA ((((((((((((((((((((((((((((((+)))))))))))))))))))))))))))))) in your reply.
80.9

----------
Test: melting temperature; melt of duplexes
Details: sodium 0.0675 M; strand 1 µM
Listed here are substances together with their documented Tm.
// return numeric value only (unit: °C, not printed)

// solved cases for Tm follow
Supply measured Tm of CGACGTGCTAAATGTGCTG+CAGCACATAGTGCACGTCG ((((((((...((((((((+))))))))...)))))))) in your reply.
45.2

Supply measured Tm of CGACGTGCCATATGTGCTG+CAGCACATTATGCACGTCG ((((((((...((((((((+))))))))...)))))))) in your reply.
50.3

---
Supply measured Tm of CGACGTGCGCGATGTGCTG+CAGCACATCTAGCACGTCG ((((((((..(((((((((+)))))))))..)))))))) in your reply.
55.5

Supply measured Tm of CGACGTGCACCATGTGCTG+CAGCACATTCGGCACGTCG ((((((((...((((((((+))))))))...)))))))) in your reply.
42.6

Supply measured Tm of CGACGTGCCGGATGTGCTG+CAGCACATGAAGCACGTCG ((((((((...((((((((+))))))))...)))))))) in your reply.
49.9

Supply measured Tm of CGACGTGCGCAATGTGCTG+CAGCACATGTAGCACGTCG ((((((((...((((((((+))))))))...)))))))) in your reply.
57.5

Supply measured Tm of CGACGTGCGAGATGTGCTG+CAGCACATAGTGCACGTCG ((((((((...((((((((+))))))))...)))))))) in your reply.
47.6

----------
Listed here are substances together with their documented Tm.
Assay: melting temperature; melt of duplexes
Details: sodium 0.0675 M; strand 1 µM
// return numeric value only (unit: °C, not printed)

// solved cases for Tm follow
Supply measured Tm of CGACGTGCCTCATGTGCTG+CAGCACATTTGGCACGTCG (((((((((..((((((((+))))))))..))))))))) in your reply.
53.6

Supply measured Tm of CGACGTGCAAAATGTGCTG+CAGCACATCTTGCACGTCG ((((((((((.((((((((+)))))))).)))))))))) in your reply.
54

Supply measured Tm of CGACGTGCTACATGTGCTG+CAGCACATCGCGCACGTCG ((((((((...((((((((+))))))))...)))))))) in your reply.
46.9

# context switch: different substance, same Tm
Supply measured Tm of CGACGTGCGTAATGTGCTG+CAGCACATGTGGCACGTCG ((((((((...((((((((+))))))))...)))))))) in your reply.
51.8

----------
Assay: melting temperature; melt of duplexes
Conditions: sodium 0.0675 M; strand 1 µM
experimental.endpoint: Tm
Please append the unit to your numeric answer.

// solved cases for Tm follow
Supply measured Tm of CGACGTGCAATATGTGCTG+CAGCACATCTCGCACGTCG ((((((((.(.((((((((+)))))))).).)))))))) in your reply.
48.4 °C

Supply measured Tm of CGACGTGCTGTATGTGCTG+CAGCACATAGGGCACGTCG ((((((((..(((((((((+)))))))))..)))))))) in your reply.
52.2 °C

Supply measured Tm of CGACGTGCACGATGTGCTG+CAGCACATCTCGCACGTCG ((((((((..(((((((((+)))))))))..)))))))) in your reply.
50.6 °C

---
Supply measured Tm of CGACGTGCGTGATGTGCTG+CAGCACATACCGCACGTCG (((((((((..((((((((+))))))))..))))))))) in your reply.
55.3 °C

Supply measured Tm of CGACGTGCGACATGTGCTG+CAGCACATACGGCACGTCG ((((((((...((((((((+))))))))...)))))))) in your reply.
48.8 °C

Supply measured Tm of CGACGTGCAATATGTGCTG+CAGCACATCGTGCACGTCG (((((((((..((((((((+))))))))..))))))))) in your reply.
45.9 °C

Supply measured Tm of CGACGTGCAATATGTGCTG+CAGCACATTGCGCACGTCG ((((((((...((((((((+))))))))...)))))))) in your reply.
50 °C

----------
Experiment: melting temperature; melt of duplexes
Settings: sodium 0.0675 M; strand 1 µM
experimental.endpoint: Tm (°C)
// return numeric value only (unit: °C, not printed)

Supply measured Tm of CGACGTGCGGGATGTGCTG+CAGCACATATTGCACGTCG ((((((((...((((((((+))))))))...)))))))) in your reply.
51.4

Supply measured Tm of CGACGTGCACAATGTGCTG+CAGCACATAAAGCACGTCG ((((((((...((((((((+))))))))...)))))))) in your reply.
47.4

Supply measured Tm of CGACGTGCACAATGTGCTG+CAGCACATCGAGCACGTCG ((((((((.(.((((((((+)))))))).).)))))))) in your reply.
48.6

# context switch: different substance, same Tm
Supply measured Tm of CGACGTGCCGTATGTGCTG+CAGCACATTGGGCACGTCG (((((((((..((((((((+))))))))..))))))))) in your reply.
54.7

----------
Listed here are substances together with their documented Tm.
Assay: melting temperature; melt of duplexes
Conditions: sodium 0.0675 M; strand 1 µM
// return numeric value only (unit: °C, not printed)

Supply measured Tm of CGACGTGCCGCATGTGCTG+CAGCACATAGTGCACGTCG ((((((((...((((((((+))))))))...)))))))) in your reply.
46.8

Supply measured Tm of CGACGTGCCCCATGTGCTG+CAGCACATTAAGCACGTCG ((((((((...((((((((+))))))))...)))))))) in your reply.
47.2

Supply measured Tm of CGACGTGCTGCATGTGCTG+CAGCACATAATGCACGTCG ((((((((...((((((((+))))))))...)))))))) in your reply.
50.7

# context switch: different substance, same Tm
Supply measured Tm of CGACGTGCCATATGTGCTG+CAGCACATGGAGCACGTCG ((((((((...((((((((+))))))))...)))))))) in your reply.
51.5

----------
Test: melting temperature; melt of duplexes
Settings: sodium 0.0675 M; strand 1 µM
experimental.endpoint: Tm (°C)
// return numeric value only (unit: °C, not printed)

Supply measured Tm of CGACGTGCAGCATGTGCTG+CAGCACATCCCGCACGTCG ((((((((.(.((((((((+)))))))).).)))))))) in your reply.
46.3

---
Supply measured Tm of CGACGTGCTGGATGTGCTG+CAGCACATTATGCACGTCG ((((((((...((((((((+))))))))...)))))))) in your reply.
52

----------
Assay: melting temperature; melt of duplexes
Settings: sodium 0.0675 M; strand 1 µM
Listed here are substances together with their documented Tm.
// return numeric value only (unit: °C, not printed)

// solved cases for Tm follow
Supply measured Tm of CGACGTGCCGCATGTGCTG+CAGCACATGGCGCACGTCG ((((((((..(((((((((+)))))))))..)))))))) in your reply.
54.9

Supply measured Tm of CGACGTGCTTAATGTGCTG+CAGCACATGTGGCACGTCG ((((((((...((((((((+))))))))...)))))))) in your reply.
51.9

Supply measured Tm of CGACGTGCGCTATGTGCTG+CAGCACATAGTGCACGTCG ((((((((.((((((((((+)))))))))).)))))))) in your reply.
58.2

Supply measured Tm of CGACGTGCGATATGTGCTG+CAGCACATTCAGCACGTCG ((((((((...((((((((+))))))))...)))))))) in your reply.
52.8

Supply measured Tm of CGACGTGCCAGATGTGCTG+CAGCACATAACGCACGTCG ((((((((...((((((((+))))))))...)))))))) in your reply.
48.6

Supply measured Tm of CGACGTGCATAATGTGCTG+CAGCACATTCAGCACGTCG ((((((((..(((((((((+)))))))))..)))))))) in your reply.
52

# context switch: different substance, same Tm
Supply measured Tm of CGACGTGCACTATGTGCTG+CAGCACATTGCGCACGTCG ((((((((.(.((((((((+)))))))).).)))))))) in your reply.
48.8

Attribution: the array DNA melting data of Ke et al.
